Target: Chymotrypsinogen A (Bos taurus) (UniProt P00766)
Where a SMILES comes first, the peptide text is derived from it. The star is where a group is joined. Cbz = O=C(OCc1ccccc1)*
readout name: IC50 (nM)
Use nM as the unit, but write only the number.

Given the entry C[C@H](NC(=O)OCc1ccccc1)C(=O)N[C@@H](C)C(=O)N[C@H](C=O)Cc1ccccc1 (Cbz-Ala-Ala-Phe-aldehyde) , report its measured IC50.
950

====

Target: Chymotrypsinogen A (Bos taurus)
Where a SMILES comes first, the peptide text is derived from it. The star is where a group is joined. Cbz = O=C(OCc1ccccc1)*
readout name: pKi
The scale used: pKi is minus the common logarithm of the concentration in molar units.

Requested read-out pKi, target or system Chymotrypsinogen A (Bos taurus), entry C[C@H](NC(=O)OCc1ccccc1)C(=O)N[C@@H](C)C(=O)N[C@H](C=O)Cc1ccccc1 (Cbz-Ala-Ala-Phe-aldehyde)
5.66
